# system: ABCB1 transporter (Homo sapiens, UniProt P08183)
# Sequence (P08183 whole entry): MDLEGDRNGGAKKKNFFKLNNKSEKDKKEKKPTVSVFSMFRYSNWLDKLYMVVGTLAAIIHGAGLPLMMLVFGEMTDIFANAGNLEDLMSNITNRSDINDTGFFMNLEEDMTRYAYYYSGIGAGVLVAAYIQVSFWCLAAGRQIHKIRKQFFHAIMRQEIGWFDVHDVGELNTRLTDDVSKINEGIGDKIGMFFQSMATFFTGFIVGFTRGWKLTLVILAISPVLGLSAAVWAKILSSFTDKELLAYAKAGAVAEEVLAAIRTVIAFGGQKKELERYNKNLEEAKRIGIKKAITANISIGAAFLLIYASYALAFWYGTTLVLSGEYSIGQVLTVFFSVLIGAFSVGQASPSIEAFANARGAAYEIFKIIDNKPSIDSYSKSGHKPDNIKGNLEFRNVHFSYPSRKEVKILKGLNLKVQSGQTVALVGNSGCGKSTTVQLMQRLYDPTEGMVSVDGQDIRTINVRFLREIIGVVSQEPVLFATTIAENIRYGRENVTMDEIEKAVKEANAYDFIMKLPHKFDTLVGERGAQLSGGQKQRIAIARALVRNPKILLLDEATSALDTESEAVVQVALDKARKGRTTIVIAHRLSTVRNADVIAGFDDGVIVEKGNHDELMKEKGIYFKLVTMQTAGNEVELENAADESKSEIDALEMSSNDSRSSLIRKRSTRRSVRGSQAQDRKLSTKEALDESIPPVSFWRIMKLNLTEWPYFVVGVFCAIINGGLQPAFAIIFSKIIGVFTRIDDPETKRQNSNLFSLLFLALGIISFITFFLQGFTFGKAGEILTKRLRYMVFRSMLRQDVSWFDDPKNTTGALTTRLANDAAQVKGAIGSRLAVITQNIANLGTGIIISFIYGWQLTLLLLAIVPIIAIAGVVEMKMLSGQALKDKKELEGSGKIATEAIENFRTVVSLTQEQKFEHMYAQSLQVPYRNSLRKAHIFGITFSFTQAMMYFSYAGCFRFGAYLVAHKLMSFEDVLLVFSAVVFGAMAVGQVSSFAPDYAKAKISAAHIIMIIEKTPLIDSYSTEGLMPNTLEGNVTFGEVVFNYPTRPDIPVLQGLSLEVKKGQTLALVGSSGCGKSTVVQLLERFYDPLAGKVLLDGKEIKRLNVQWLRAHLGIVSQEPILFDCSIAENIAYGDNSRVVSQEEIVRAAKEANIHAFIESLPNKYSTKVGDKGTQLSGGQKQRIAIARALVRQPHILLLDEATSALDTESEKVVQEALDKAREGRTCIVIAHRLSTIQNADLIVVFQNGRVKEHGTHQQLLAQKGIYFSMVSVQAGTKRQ
# protocolNotes: biochemical
endpointLabel: EC50

Which EC50 is reported for this compound? CC(=O)c1c(C)c2cnc(Nc3ccc(N4CCNCC4)cn3)nc2n(C2CCCC2)c1=O [palbociclib] 4.73 µM

Values compiled from paper PMC8957877.
